Assay: Metabolic stability in rat liver microsomes assessed as intrinsic clearance
Type: ADME, Microsome
Settings: read-out: CLH
measure: microsomal CLint (µL/min/mg)

- moleculeSmiles: "Cc1nnn(Cc2cc(C(F)(F)F)ccc2/C=C/C(=O)N2CCC(c3noc(C)n3)CC2)n1"
  microsomal CLint / µL/min/mg: 35
- moleculeSmiles: "Cc1nnn(Cc2cc(Cl)ccc2/C=C/C(=O)N2CCN(Cc3cnn(C)c3)CC2)n1"
  microsomal CLint / µL/min/mg: 49
- moleculeSmiles: "Cc1cc(CN2CCN(C(=O)/C=C/c3ccc(Cl)cc3Cn3nnc(C)n3)CC2)on1"
  microsomal CLint / µL/min/mg: 88
- moleculeSmiles: "Cc1nnn(Cc2cc(C(F)(F)F)ccc2/C=C/C(=O)N2CCC(c3nnc(C)o3)CC2)n1"
  microsomal CLint / µL/min/mg: 19
- moleculeSmiles: "Cc1nnn(Cc2cc(C(F)(F)F)ccc2/C=C/C(=O)N2CCC(Cl)CC2)n1"
  microsomal CLint / µL/min/mg: 89
- moleculeSmiles: "Cc1nnn(Cc2cc(Cl)ccc2/C=C/C(=O)N2CCN(Cc3coc(C)n3)CC2)n1"
  microsomal CLint / µL/min/mg: 72

I. Cc1nnn(Cc2cc(C(F)(F)F)ccc2/C=C/C(=O)N2CCC(C#N)CC2)n1
II. Cc1cnn(Cc2cc(Cl)ccc2/C=C/C(=O)N2CCN(Cc3ccc(F)cc3)C[C@H]2C)n1
input: Between I and II , which one shows the larger microsomal CLint value? Write down the label attached to your selection.
output: II
(II: 690 µL/min/mg, I: 28 µL/min/mg)

----------
Test: Clearance in Sprague-Dawley rat at 1 mg/kg, iv
Format: ADME, organism-based
Details: in vivo
measure: clearance (mL/min/kg)

a. Cc1nnn(Cc2cc(C(F)(F)F)ccc2/C=C/C(=O)N2CCC(c3nnc(C)o3)CC2)n1
b. Cc1nnn(Cc2cc(Cl)ccc2/C=C/C(=O)N2CCN(Cc3coc(C)n3)CC2)n1
input: Between a and b , which one shows the larger clearance value? Write down the label attached to your selection.
output: b

----------
Target: Autotaxin (Homo sapiens, UniProt Q13822)
measure: IC50 (nM)

Worked examples follow.
- moleculeSmiles: "C[C@@H]1CN(Cc2ccc(F)cc2)CCN1C(=O)/C=C/c1ccc(Cl)cc1Cn1ncnn1"
  IC50, nM: 16
- moleculeSmiles: "Cc1nnn(Cc2cc(Cl)ccc2/C=C/C(=O)N2CCN(Cc3ccc(F)cc3)C[C@H]2C)n1"
  IC50, nM: 9.6
- moleculeSmiles: "Cc1cnn(Cc2cc(Cl)ccc2/C=C/C(=O)N2CCN(Cc3ccc(F)cc3)C[C@H]2C)n1"
  IC50, nM: 5.9

1. Cc1nnn(Cc2cc(Cl)ccc2/C=C/C(=O)N2CCN(Cc3ccc(F)cc3)CC2)n1
2. COc1ccc(CN2CCN(C(=O)/C=C/c3ccc(Cl)cc3Cn3nnc(C)n3)CC2)cc1
3. Cc1nnn(Cc2cc(C(F)(F)F)ccc2/C=C/C(=O)N2CCC(C#N)CC2)n1
4. Cc1nnn(Cc2cc(C(F)(F)F)ccc2/C=C/C(=O)N2CCC(Cl)CC2)n1
5. Cc1nnn(Cc2cc(Cl)ccc2/C=C/C(=O)N2CCNC[C@H]2C)n1
input: Descending sort on IC50 required. Reply with the labels, ordered as the question asks.
output: 3, 5, 4, 1, 2

I. Cc1cc(CN2CCN(C(=O)/C=C/c3ccc(Cl)cc3Cn3nnc(C)n3)CC2=O)on1
II. Cc1ncn(C2CCN(C(=O)/C=C/c3ccc(C(F)(F)F)cc3Cn3nnc(C)n3)CC2)n1
III. Cc1nnn(Cc2cc(Cl)ccc2/C=C/C(=O)N2CCN(C(=O)c3ccc(F)cc3)CC2)n1
input: Ascending by IC50, please. Reply with the labels, ordered as the question asks.
output: II, I, III

I. Cc1nnn(Cc2cc(Cl)ccc2CCC(=O)N2CCN(Cc3ccc(F)cc3)C[C@H]2C)n1
II. Cc1nnn(Cc2cc(C(F)(F)F)ccc2/C=C/C(=O)N2CCC(C(F)(F)F)CC2)n1
input: Between I and II , which one shows the larger IC50 value? Write down the label attached to your selection.
output: I
(I: 19 nM, II: 13 nM)
